# measured target: human CD33 G94A (human, UniProt P20138 18-364)
# Sequence (P20138 18-364 G94A limits assumed): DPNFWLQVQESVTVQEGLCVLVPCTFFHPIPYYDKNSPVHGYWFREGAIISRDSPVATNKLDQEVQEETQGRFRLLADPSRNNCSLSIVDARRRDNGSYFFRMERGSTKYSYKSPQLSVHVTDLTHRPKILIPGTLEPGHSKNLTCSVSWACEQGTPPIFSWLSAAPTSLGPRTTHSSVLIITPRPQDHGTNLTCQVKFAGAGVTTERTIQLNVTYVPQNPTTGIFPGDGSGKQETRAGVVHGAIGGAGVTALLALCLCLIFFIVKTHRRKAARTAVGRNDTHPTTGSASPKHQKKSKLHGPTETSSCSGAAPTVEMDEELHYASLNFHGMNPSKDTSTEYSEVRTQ
# protocol summary: flow cytometry on HEK293-T, alanine scan
experimental endpoint: Mean % WT Binding
Answer format: value, then unit.

What value of measured Mean % WT Binding is listed for Refmab #1 (antibody, V domains shown, The alanine scan used IgG or Fab; also called hP67.6) VH: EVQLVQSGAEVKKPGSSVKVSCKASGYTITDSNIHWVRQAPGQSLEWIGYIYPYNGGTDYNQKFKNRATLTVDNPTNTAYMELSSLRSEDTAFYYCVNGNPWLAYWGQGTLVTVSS VL: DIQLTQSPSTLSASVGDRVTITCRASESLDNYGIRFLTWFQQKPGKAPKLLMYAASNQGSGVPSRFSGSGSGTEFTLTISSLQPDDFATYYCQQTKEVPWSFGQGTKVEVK ? 88.3 % WT binding
